System: BDF1 mice, P388 leukemia ip, median survival T/C
experimentSummary: NCI In Vivo Anticancer Drug Screen. Data for tumor model P388 Leukemia (intraperitoneal) in B6D2F1 (BDF1) mice
reportedConditions: endpoint: median survival time; dose: 100.0 mg/kg/injection; schedule: Q04DX003 (ip); vehicle: Klucel (hydroxypropylcellulose) (HPC); higher = longer survival
Toxic doses and inconclusive results are not listed.
Provide the recorded T/C for the entries that follow.

Q. // T/C lookup, key: C#CCOC(=O)NC1CCCCC1
A. 95 % of control

Q. What about this molecule? O=C1CC2c3ccccc3C1C1C(=O)OC(=O)C21 (centres undefined)
A. 104 % of control

Q. What about this molecule? CC(=O)OCC(=O)[C@@]1(O)[C@H](C)C[C@H]2[C@@H]3C=C(C)C4=Cc5c(cnn5-c5ccc(F)cc5)C[C@]4(C)[C@H]3[C@@H](O)C[C@@]21C
A. 90 % of control

Q. What about this molecule? COc1ccc(/C=N\NC(=O)OC(C)(C)C)c(OC)c1OC
A. 115 % of control

---

Tested on: BDF1 mice, P388 leukemia ip, median survival T/C
experimentSummary: NCI In Vivo Anticancer Drug Screen. Data for tumor model P388 Leukemia (intraperitoneal) in B6D2F1 (BDF1) mice
reportedConditions: endpoint: median survival time; dose: 25.0 mg/kg/injection; schedule: Q04DX003 (ip); vehicle: saline
Inconclusive results and toxic doses are left out. How the source made its calls: active means survival T/C of 150% or more; inactive means T/C below 125% in these data.
Hi there, use one of these labels in your reply, thanks! active, inactive

Q. // outcome(item) with item = [NH-]CC(=O)[N-]CC(=O)O.[NH-]CC(=O)[N-]CC(=O)O.[Ni]
A. inactive

Q. What about this compound? N#CN1CC(C(=O)N2CCCCC2)C=C2c3cccc4[nH]cc(c34)CC21 (stereo not drawn)
A. inactive

Q. What about this compound? COc1ccc(-c2csc(=[N+]3CCCCC3)s2)cc1
A. inactive

Q. What about this compound? CN(C)CCC=C1c2ccccc2-c2ccccc21
A. inactive

Q. What about this compound? CN(C)CCCN1c2ccccc2Sc2ccc(C(F)(F)F)cc21
A. inactive

Q. What about this compound? CCC(C)(C)c1ccc(OCCOS(=O)(=O)c2ccc(C)cc2)cc1
A. inactive

Q. What about this compound? COc1ccc(/C=C/C(=N\O)c2ccc(OC)c(OC)c2)cc1OC
A. inactive

Q. What about this compound? COc1cc2c(cc1OC)C(CCN1C(=O)c3ccccc3C1=O)=NCC2
A. inactive

Q. What about this compound? O=c1[nH]c2cc(Cl)ccc2c(CCl)c1Cl
A. inactive

Q. What about this compound? C1CNCOC1
A. inactive

Q. What about this compound? CC(C)(C)c1cccc(C(C)(C)C)c1OC(=O)NS(=O)(=O)c1ccccc1
A. inactive

Q. What about this compound? CCOC(=O)c1cnn(-c2ccccc2)c1N
A. inactive

Q. What about this compound? O=P(N1CC1)(N1CC1)N1CC2CCC(CC2)C1
A. active

---

Test system: BDF1 mice, P388 leukemia ip, median survival T/C
experimentSummary: NCI In Vivo Anticancer Drug Screen. Data for tumor model P388 Leukemia (intraperitoneal) in B6D2F1 (BDF1) mice
reportedConditions: endpoint: median survival time; dose: 200.0 mg/kg/injection; schedule: Q01DX009 (ip); vehicle: saline with Tween-80; higher = longer survival
Inconclusive results and toxic doses are left out.
Provide the recorded T/C for the entries that follow.

Q. // T/C lookup, key: C/C(=N/N(C)C)c1ccccn1
A. 100 % of control

Q. What about this compound? COc1cc(NC(=O)CC(C)=O)c(OC)cc1Cl
A. 100 % of control

Q. What about this compound? CS(=O)CC(O)(c1ccccc1)c1ccncc1 (stereo not drawn)
A. 110 % of control

Q. What about this compound? Cc1cnc(O[Si](C)(C)C)nc1O[Si](C)(C)C
A. 91 % of control

Q. What about this compound? Cc1ccc(/C=C/C(=O)c2ccc(Cl)cc2)cc1
A. 90 % of control

Q. What about this compound? O=C1c2ccccc2C(=O)N1CCc1ccccn1
A. 95 % of control

Q. What about this compound? COC(=O)NC1C(C)C=CC(C)C1I (stereo not drawn)
A. 113 % of control

Q. What about this compound? CCCC#CCOCC1CO1 (stereo not drawn)
A. 120 % of control

Q. What about this compound? O=c1c2cc3nc4ccccn4c(=O)c3cc2nc2ccccn12
A. 91 % of control

Q. What about this compound? COc1ccc(C(=S)N2CCN(c3ccccc3)CC2)cc1
A. 95 % of control

Q. What about this compound? O=C(NC(=O)c1c(F)cccc1F)Nc1ccc(Br)cc1
A. 96 % of control

Q. What about this compound? COc1ccc(OP2OCC(C)O2)cc1 (stereo not drawn)
A. 102 % of control

Q. What about this compound? Cc1cccc(NNC(=S)Nc2ccccc2)c1
A. 95 % of control

---

Provide the recorded T/C for the entries that follow.
System: BDF1 mice, P388 leukemia ip, median survival T/C
experimentSummary: NCI In Vivo Anticancer Drug Screen. Data for tumor model P388 Leukemia (intraperitoneal) in B6D2F1 (BDF1) mice
reportedConditions: endpoint: median survival time; dose: 12.5 mg/kg/injection; schedule: Q04DX003 (ip); vehicle: water; higher = longer survival
Toxic doses and inconclusive results are not listed.

Q. // T/C lookup, key: [NH-]CC([NH-])=O.[NH-]CC([NH-])=O.[Ni]
A. 95 % of control

Q. What about this compound? c1ccc(Cn2ccnc2C2OCCO2)cc1
A. 104 % of control

Q. What about this compound? COc1cc2c(cc1OC)-c1c(C)c3ccc(OC)c(NCCN)c3c[n+]1CC2
A. 110 % of control

Q. What about this compound? CCOC(=O)C(I)CC (stereo unspecified)
A. 100 % of control

Q. What about this compound? COC(=O)C(N)CSCSCc1ccccc1 (stereo unspecified)
A. 113 % of control

Q. What about this compound? CN(C)Cc1cccc(N)c1
A. 100 % of control

---

Tested on: BDF1 mice, P388 leukemia ip, median survival T/C
experimentSummary: NCI In Vivo Anticancer Drug Screen. Data for tumor model P388 Leukemia (intraperitoneal) in B6D2F1 (BDF1) mice
reportedConditions: endpoint: median survival time; dose: 100.0 mg/kg/injection; schedule: Q04DX003 (ip); vehicle: saline; higher = longer survival
Inconclusive results and toxic doses are left out.
parameter: T/C

Q. // T/C lookup, key: CC[S+](CC)CC
A. 100 % of control

Q. What about this compound? O=C1OC2C(I)C3CCC2C1C3 (stereo not given)
A. 121 % of control

Q. What about this compound? CC(=O)OC1C=COC(C)C1OC(C)=O (stereo not given)
A. 100 % of control

Q. What about this compound? CCOC(=O)c1cnc(C)[nH]c1=O
A. 104 % of control

Q. What about this compound? CC1CN1P(=O)(N1CC=CCC1)N1CC1C (stereo not given)
A. 107 % of control

Q. What about this compound? CCCCCCCCCCOP(N)(=O)OCCCCCCCCCC
A. 110 % of control

Q. What about this compound? CC(C)(CO)Nc1ccccc1
A. 110 % of control

Q. What about this compound? CCCCCC(C)(C)O
A. 112 % of control

Q. What about this compound? CC[N+](C)(C)c1ncnc2nc[nH]c12
A. 104 % of control

Q. What about this compound? O=C(O)CS(=O)(=O)c1ccccc1
A. 100 % of control

---

System: BDF1 mice, P388 leukemia ip, median survival T/C
experimentSummary: NCI In Vivo Anticancer Drug Screen. Data for tumor model P388 Leukemia (intraperitoneal) in B6D2F1 (BDF1) mice
reportedConditions: endpoint: median survival time; dose: 100.0 mg/kg/injection; schedule: Q04DX003 (ip); vehicle: saline sonified; higher = longer survival
Toxic doses and inconclusive results are not listed.
parameter: T/C

Q. Which measured T/C belongs to CC1(C)N=C(N)N=C(N)N1c1ccc(CCC(=O)Nc2ccc(S(=O)(=O)F)cc2)cc1 , tested on BDF1 mice, P388 leukemia ip, median survival T/C?
A. 111 % of control

Q. What about this compound? CCCCCCCCCCC(O)CN1CCN(c2ccc(C)cc2)CC1 (stereo not drawn)
A. 100 % of control

Q. What about this compound? CC1(C)CCC2(C)CC=C3OC(=O)CCC3(C)C2C1 (stereo not drawn)
A. 100 % of control

Q. What about this compound? O=C(/C=N/O)c1cccnc1
A. 100 % of control

Q. What about this compound? O=C1NC(=O)c2cc([N+](=O)[O-])cc3cccc1c23
A. 91 % of control

Q. What about this compound? Clc1ccc(N2CCN(CCCN3CCN(c4cccc(Cl)c4)CC3)CC2)cc1
A. 100 % of control

Q. What about this compound? O=C(Nc1cc(C(F)(F)F)cc(C(F)(F)F)c1)Nc1c(Oc2ccc(Cl)cc2Cl)ccc(Cl)c1S(=O)(=O)O
A. 87 % of control

Q. What about this compound? COc1cc(N/C(N)=N\C(N)=NC(C)C)cc(OC)c1OC
A. 95 % of control
